target: human recombinant histamine H1 receptor (Homo sapiens); construct: expressed in transfected cells; host or cells: CHO cells; test: Histamine H1 radioligand binding ([3H]Pyrilamine); conditions: percent inhibition of specific binding; screened at 1 μM; read-out: Inhibition of ligand binding, Hist. H1
reported-endpoint: inhibition at 1 µM
Give the number first and the unit second.

Recorded results for 2 compounds are shown here.
- smiles-data: "Cc1ccc2c(c1)c1c(n2CCc2ccc(OC(C)(C)C)cc2)CCN(C)C1"
  tested-on: "human recombinant histamine H1 receptor (Homo sapiens)"
  result: "96%"
- smiles-data: "CN1CCc2c(c3ccc(Cl)cc3n2CCC2CCCCC2)C1"
  tested-on: "human recombinant histamine H1 receptor (Homo sapiens)"
  result: "97%"

Continue with the compound presented below.
Look up inhibition at 1 µM of CCN1CCc2c(c3cc(C)ccc3n2CCc2ccc(C)nc2)C1 and report it.
100%

---

Give inhibition at 1 µM for every item shown.
target: human recombinant histamine H1 receptor (Homo sapiens, UniProt P35367); construct: expressed in transfected cells; host or cells: CHO cells; assay: Histamine H1 radioligand binding ([3H]Pyrilamine); details: 1 μM compound; […] [3H]Pyrilamine; read-out: Histamine Binding H1, percent inhibition of specific binding
Sequence (P35367 whole entry): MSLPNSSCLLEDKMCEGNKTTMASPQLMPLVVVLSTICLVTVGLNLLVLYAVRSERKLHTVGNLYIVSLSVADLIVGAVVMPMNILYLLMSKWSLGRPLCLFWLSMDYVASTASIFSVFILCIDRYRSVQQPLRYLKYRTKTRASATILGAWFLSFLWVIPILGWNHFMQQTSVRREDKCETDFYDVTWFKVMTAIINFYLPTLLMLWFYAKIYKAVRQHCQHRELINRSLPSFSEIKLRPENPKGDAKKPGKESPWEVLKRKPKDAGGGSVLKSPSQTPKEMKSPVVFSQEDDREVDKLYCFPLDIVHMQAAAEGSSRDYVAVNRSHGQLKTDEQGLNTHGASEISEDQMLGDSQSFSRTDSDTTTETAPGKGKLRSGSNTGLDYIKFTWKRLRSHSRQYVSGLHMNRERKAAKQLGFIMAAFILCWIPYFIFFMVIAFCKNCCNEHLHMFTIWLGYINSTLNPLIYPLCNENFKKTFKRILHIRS
Give the number first and the unit second.

- compound: "CCN1CCc2c(c3ccccc3n2Cc2ccccc2)C1 [Compound 16]"
  inhibition at 1 µM: "10%"
- compound: "CCN1CCc2c(c3ccccc3n2CCc2ccccc2)C1 [Compound 4]"
  inhibition at 1 µM: "93%"
- compound: "CCN1CCc2c(c3cc(C)ccc3n2CCc2ccncc2)C1 [Compound 27]"
  inhibition at 1 µM: "99%"
- compound: "CCN1CCc2c(c3ccccc3n2CCc2ccccn2)C1 [Compound 6]"
  inhibition at 1 µM: "32%"
- compound: "CCN1CCc2c(c3ccccc3n2CCc2ccncc2)C1 [Compound 5]"
  inhibition at 1 µM: "82%"
- compound: "Cc1ccc2c(c1)c1c(n2CCN2CCCC2)CCN(C)C1 [Compound 221]"
  inhibition at 1 µM: "78%"
- compound: "CCN1CCc2c(c3cc(C)ccc3n2CCc2ccc(C)nc2)C1 [Compound 31]"
  inhibition at 1 µM: "100%"
- compound: "Cc1ccc(CCn2c3c(c4ccccc42)CN(C)CC3)cc1 [Compound 1]"
  inhibition at 1 µM: "91%"

Please go through the list and note inhibition at 1 µM for each compound.
1. CN1Cc2c(n(CCc3n[nH]c(=S)n3C)c3ccc(C(F)(F)F)cc23)CC1(C)C [Compound 219]
2. CC1CN(C(=O)Cn2c3c(c4cc(Cl)ccc42)CN(C)CC3)CC(C)N1 (stereo not shown) [Compound 245]

["89%", "22%"]

---

Target: human recombinant adrenergic α1D receptor (Homo sapiens)
Construct: expressed in transfected cells; host or cells: HEK-293 cells
Sequence (P25100 1-572): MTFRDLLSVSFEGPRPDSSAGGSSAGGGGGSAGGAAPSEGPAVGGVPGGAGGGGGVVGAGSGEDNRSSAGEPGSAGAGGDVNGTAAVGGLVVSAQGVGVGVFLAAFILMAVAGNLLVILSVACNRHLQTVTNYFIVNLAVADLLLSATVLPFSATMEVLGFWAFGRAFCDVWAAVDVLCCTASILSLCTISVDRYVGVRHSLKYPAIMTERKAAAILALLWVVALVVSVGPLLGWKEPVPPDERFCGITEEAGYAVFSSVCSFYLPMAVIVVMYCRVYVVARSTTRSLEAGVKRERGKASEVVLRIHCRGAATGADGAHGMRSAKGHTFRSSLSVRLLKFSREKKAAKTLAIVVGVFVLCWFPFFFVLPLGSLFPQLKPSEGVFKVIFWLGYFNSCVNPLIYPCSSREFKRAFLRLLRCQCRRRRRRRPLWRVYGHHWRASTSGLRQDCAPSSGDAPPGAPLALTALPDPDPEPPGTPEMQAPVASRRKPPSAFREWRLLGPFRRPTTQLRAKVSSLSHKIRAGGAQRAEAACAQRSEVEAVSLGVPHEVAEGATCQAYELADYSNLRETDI
Assay: Adrenergic α1D radioligand binding ([3H]Prozosin)
Design: concentration or dose not given beside the values
Conditions: percent inhibition of specific binding
We use 80% as the dividing line for Inhibition of ligand binding, Adren. alpha1D: on or above the line is 1, below is -1.

- molecule: "CCc1ccc2c(c1)c1c(n2CCc2cnc(C)cn2)CCN(C)C1"
  label: -1
- molecule: "COc1ccc(CCn2c3c(c4cc(Cl)ccc42)CN(C)CC3)cc1F"
  label: 1
- molecule: "Cc1ccc2c(c1)c1c(n2Cc2ccccc2)CCN(C)C1"
  label: -1
- molecule: "Cc1ccc2c(c1)c1c(n2CC(C)c2ccc(F)cc2)CCN(C)C1 (centres unmarked)"
  label: 1

Now examine the next entry.
Does CN1CCc2c(c3cc(Cl)ccc3n2CCc2ccc(C(F)(F)F)nc2)C1 have a reported Inhibition of ligand binding, Adren. alpha1D of at least 80%?
1
